For each entry below, report its amyloid nucleation score value.
Assay: amyloid nucleation score (Sup35N fusion, yeast selection) (log enrichment); library NNK2; higher = more nucleation; inactive = no reads after selection;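 further: zero at mode of non-aggregating sequences after 7 days selection at 30°C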
Would you mind answering with just the numeric figure?

Data request: Give the measured amyloid nucleation score of `RSHLSTLEMSTSIGKGNPNY` .
Data returned: 0.685

Data request: Give the measured amyloid nucleation score of `VLVEGVQCYSENRTNT` .
Data returned: 1.49

Data request: Give the measured amyloid nucleation score of `IFLDHYS` .
Data returned: -0.026

Data request: Give the measured amyloid nucleation score of `IRQIIESWQFLYISVYAGLV` .
Data returned: 0.186

====

Experiment: amyloid nucleation score (Sup35N fusion, yeast selection) (log enrichment); library NNK2; higher = more nucleation; inactive = no reads after selection
For each entry below, report its amyloid nucleation score value.
Would you mind answering with just the numeric figure?

Data request: Give the measured amyloid nucleation score of `CLAVIQWFPCIVDMGLECGF` .
Data returned: 2.96

Data request: Give the measured amyloid nucleation score of `IVSETKITIVC` .
Data returned: -0.275

Data request: Give the measured amyloid nucleation score of `CVMSFYPELIILASSFCVPF` .
Data returned: -1.22

Data request: Give the measured amyloid nucleation score of `SCLLYCYSNSWFFIFNQR` .
Data returned: -0.979

Data request: Give the measured amyloid nucleation score of `NLFLFVRGLGRGWSWWWEVR` .
Data returned: 0.415

Data request: Give the measured amyloid nucleation score of `NLNIFGLAMLCNRRGAYMRK` .
Data returned: 6.83

Data request: Give the measured amyloid nucleation score of `LKLCLRCSNIVLPD` .
Data returned: -0.434

Data request: Give the measured amyloid nucleation score of `VDVNVHIAGIWLWFYLWRYV` .
Data returned: -0.768

Data request: Give the measured amyloid nucleation score of `QPAVQGITRRKVCWVIMQNA` .
Data returned: 0.336

Data request: Give the measured amyloid nucleation score of `MVAYFPMSPG` .
Data returned: -0.076

Data request: Give the measured amyloid nucleation score of `FGWGINRVYLVNM` .
Data returned: 5.04

Data request: Give the measured amyloid nucleation score of `RWLVRTEKSS` .
Data returned: 2.03

Data request: Give the measured amyloid nucleation score of `SILSIYFDPYGCRL` .
Data returned: 0.164

Data request: Give the measured amyloid nucleation score of `IDFVVIKTLGMCDITYLYM` .
Data returned: -0.573

Data request: Give the measured amyloid nucleation score of `LSLLVSLTRTMFNLNNTCTA` .
Data returned: -0.17

Data request: Give the measured amyloid nucleation score of `WQKLLIDYSSSTYDEALGT` .
Data returned: 0.833

Data request: Give the measured amyloid nucleation score of `TWRNYS` .
Data returned: -0.279

Data request: Give the measured amyloid nucleation score of `MCEYLWCMGACNQASLTYLS` .
Data returned: 5.79

Data request: Give the measured amyloid nucleation score of `CKLTATCQSQMTEIGLGSFA` .
Data returned: 3.62

Data request: Give the measured amyloid nucleation score of `NQFNVFFASVVLVVGCICNH` .
Data returned: 7.62

Data request: Give the measured amyloid nucleation score of `MMYDRIIQFTLYTLI` .
Data returned: 3.09

Data request: Give the measured amyloid nucleation score of `LHIGKFNVNLFN` .
Data returned: 4.32

Data request: Give the measured amyloid nucleation score of `SDLANTLEPELQAFVIQ` .
Data returned: -0.029

Data request: Give the measured amyloid nucleation score of `DHADWNAYHISTEV` .
Data returned: 3.25

Data request: Give the measured amyloid nucleation score of `LFGVSMSKADMSFWQDSGTR` .
Data returned: 4.77

Data request: Give the measured amyloid nucleation score of `SLSGHDLNWRFI` .
Data returned: 0.32

Data request: Give the measured amyloid nucleation score of `CFMLVFSRTCVSMYTIVNPS` .
Data returned: 4.59

Data request: Give the measured amyloid nucleation score of `RQDPDSLTLHRLSSGGIR` .
Data returned: 0.366

Data request: Give the measured amyloid nucleation score of `MWLSPRVVVFCRLIFHLLVG` .
Data returned: -0.567

Data request: Give the measured amyloid nucleation score of `FSMPTYSSALAFM` .
Data returned: -0.352

Data request: Give the measured amyloid nucleation score of `NLHFCVQKSGESASRVVHHA` .
Data returned: 0.958

Data request: Give the measured amyloid nucleation score of `YDYNCRDVWIWHA` .
Data returned: -0.184

Data request: Give the measured amyloid nucleation score of `SLMETGYTPSRERMMHHM` .
Data returned: -0.095

Data request: Give the measured amyloid nucleation score of `ISGLETYLRSYWICIWSMWA` .
Data returned: 3.02

Data request: Give the measured amyloid nucleation score of `LKWDASKAWILRCQCFRELW` .
Data returned: -0.678

Data request: Give the measured amyloid nucleation score of `IALTQILLRFFGLHA` .
Data returned: -0.305

Data request: Give the measured amyloid nucleation score of `YCFMVRFRYGPLREMTNCSK` .
Data returned: -0.34

Data request: Give the measured amyloid nucleation score of `SGFLDLPVYPVYNHNRTKMI` .
Data returned: 0.267

Data request: Give the measured amyloid nucleation score of `REAMTCIFDLKYAGLASVWW` .
Data returned: -0.532

Data request: Give the measured amyloid nucleation score of `AYKTSHVWSLYRVHGV` .
Data returned: 0.41

Data request: Give the measured amyloid nucleation score of `RNRSGVMW` .
Data returned: 0.276

Data request: Give the measured amyloid nucleation score of `YDDKGEIRLPDQSMNCFVSD` .
Data returned: -0.766

Data request: Give the measured amyloid nucleation score of `CFSCVFIMDCCRH` .
Data returned: 7.95

Data request: Give the measured amyloid nucleation score of `WYFWGLHMIGVSTAISNPLR` .
Data returned: -0.683

Data request: Give the measured amyloid nucleation score of `VALSSVFKEESCRVIRIMES` .
Data returned: -1.02

Data request: Give the measured amyloid nucleation score of `CDTYNFCIL` .
Data returned: 6.12

Data request: Give the measured amyloid nucleation score of `SRRVFVKWGNWSCFVVVEDN` .
Data returned: 0.072

Data request: Give the measured amyloid nucleation score of `VTTVRSPILLTLRTVPF` .
Data returned: 0.425

Data request: Give the measured amyloid nucleation score of `STWWWYLCIQARLMCMRFLA` .
Data returned: -0.357

Data request: Give the measured amyloid nucleation score of `KRRSNSTILGPINSPRVAEG` .
Data returned: -0.258

Data request: Give the measured amyloid nucleation score of `YEYDLSPCSVVRRVTLKRMV` .
Data returned: 1.55

Data request: Give the measured amyloid nucleation score of `LARACKIEAYFLLVHVSIMC` .
Data returned: -0.174

Data request: Give the measured amyloid nucleation score of `YTHVNRWTCCSSIEICDWSY` .
Data returned: 6.96

Data request: Give the measured amyloid nucleation score of `KIFFGNNRF` .
Data returned: 3.4

Data request: Give the measured amyloid nucleation score of `VNVSGSGSVPY` .
Data returned: 0.741

Data request: Give the measured amyloid nucleation score of `FWKNYQIMMRMCDKHVIEDV` .
Data returned: 2.95

Data request: Give the measured amyloid nucleation score of `NFENCVFWYNLYCNFD` .
Data returned: 7.52

Data request: Give the measured amyloid nucleation score of `KYLRVDMVNMNAYKGHWEGS` .
Data returned: 0.526

Data request: Give the measured amyloid nucleation score of `CTCFVLSGSVV` .
Data returned: 2.4

Data request: Give the measured amyloid nucleation score of `ASGVIDIGYIIVEVVMIFYI` .
Data returned: -0.697

Data request: Give the measured amyloid nucleation score of `NYGSTLVDWRVRFTRTRTWS` .
Data returned: 0.503
